system: Haemophilus influenzae; assay: Antimicrobial activity against Haemophilus influenzae ATCC 51907 after 24 hrs by microtiter plate assay; assay type: functional; settings: ATCC 51907, 24 h
endpoint-label: MIC (µg/mL)

1. CCCC[C@H](CN(O)C=O)C(=O)[C@@H](NC(=O)Nc1ccccc1F)C(C)C 0.1

I. CCCC[C@H](CN(O)C=O)C(=O)[C@@H]1CCCN1C(=O)OC(C)(C)C
II. CCCC[C@H](CN(O)C=O)C(=O)[C@@H](NC(=O)c1cccc(OC)c1)C(C)C
Please tell me which of the two, I or II , has the higher reported MIC value. Response format: the label of the selected entry.
I

a. CCCC[C@H](CN(O)C=O)C(=O)[C@@H](NC(=O)Nc1ccccc1)C(C)C
b. CCCC[C@H](CN(O)C=O)C(=O)[C@H](C)NC(=O)OC(C)(C)C
Between the entries labeled a and b , whose measured MIC is lower? Refer to your chosen item by its label in the answer.
a
(a: 0.4 µg/mL, b: 0.8 µg/mL)

====

system: Moraxella catarrhalis; experiment: Antimicrobial activity against Moraxella catarrhalis ATCC 43617 after 48 hrs by microtiter plate assay; assay type: functional; settings: ATCC 43617, 48 h
endpoint-label: MIC (µg/mL)

1) CCCC[C@H](CN(O)C=O)C(=O)[C@@H](NC(=O)Nc1ccccn1)C(C)C 0.1
2) CCCC[C@H](CN(O)C=O)C(=O)[C@H](NC(=O)OC(C)(C)C)C(C)(C)C 0.1

P. CCCC[C@H](CN(O)C=O)C(=O)[C@@H](NC(=O)Nc1ccccc1)C(C)C
Q. CCCC[C@H](CN(O)C=O)C(=O)[C@@H](NC(=O)c1cccc(F)c1)C(C)C
Between the entries labeled P and Q , whose measured MIC is lower? Output the label that corresponds to your choice.
P

====

tested on: Haemophilus influenzae; assay: Antimicrobial activity against Haemophilus influenzae ATCC 51907 after 24 hrs by microtiter plate assay; assay type: functional; conditions: ATCC 51907, 24 h
endpoint-label: MIC (µg/mL)

1. CCCC[C@H](CN(O)C=O)C(=O)[C@@H](NC(=O)Nc1ccccn1)C(C)C 0.1
2. CCCC[C@H](CN(O)C=O)C(=O)[C@H](NC(=O)OC(C)(C)C)C(C)(C)C 3.2
3. CCCC[C@H](CN(O)C=O)C(=O)[C@@H](NC(=O)C(C)C)C(C)C 0.2
4. CCCC[C@H](CN(O)C=O)C(=O)[C@@H](NC(=O)c1cccnc1)C(C)C 0.1
5. CCCC[C@H](CN(O)C=O)C(=O)[C@@H](NC(=O)c1nccc2ccccc12)C(C)C 0.4
6. CCCC[C@H](CN(O)C=O)C(=O)[C@@H](NC(=O)Nc1ccccc1OC)C(C)C 0.2

A. COc1ccccc1NC(=O)N[C@@H](C(=O)N(CC(=O)NO)CC1CCCC1)C(C)(C)C
B. CCCC[C@H](CN(O)C=O)C(=O)[C@@H](NC(=O)c1ccccn1)C(C)C
Among A and B , whose measured MIC is the smaller figure? Choose, then provide that item's label.
B

====

test system: Haemophilus influenzae; experiment: Antimicrobial activity against Haemophilus influenzae ATCC 51907 after 24 hrs by microtiter plate assay; assay type: functional; conditions: ATCC 51907, 24 h
endpoint-label: MIC (mg/L)

Some solved entries appear below for comparison.
1. CCCC[C@H](CN(O)C=O)C(=O)[C@@H](NC(=O)c1ccccc1)C(C)C 0.2
2. CCCC[C@H](CN(O)C=O)C(=O)[C@@H](NC(=O)c1cccc(F)c1)C(C)C 0.2
3. CCCC[C@H](CN(O)C=O)C(=O)[C@@H](NC(=O)NC(C)C)C(C)C 0.1

A. CCCC[C@H](CN(O)C=O)C(=O)[C@@H](NC(=O)NC1CCCC1)C(C)C
B. CCCC[C@H](CN(O)C=O)C(=O)[C@@H](NC(=O)OC(C)(C)C)C(C)C
Which of these two has the smaller recorded MIC: A or B ? Your answer should be the label attached to the chosen record.
A

1. CCCC[C@H](CN(O)C=O)C(=O)[C@@H](NC(=O)c1ccncc1)C(C)C
2. CCCC[C@H](CN(O)C=O)C(=O)[C@@H](NC(=O)c1ccc2ccccc2n1)C(C)C
Please indicate which entry, 1 or 2 , has the lower recorded MIC value. // return label of chosen record
1
